# growth inhibition annotations
Assay: NCI Yeast Anticancer Drug Screen. Data for the mec2-1 strain (AID 157)
Settings: S. cerevisiae mec2-1 strain, at 50.0 µM, hits give high values
Method: Growth inhibition of yeast strains with defined genetic alterations is measured as a screen for potential anti-cancer activity. Selected strains with alterations in DNA damage repair or cell cycle control were exposed to compounds and growth inhibition was measured relative to vehicle treated controls. The strain used in this assay is mec2-1
About 79,000 compounds went through this panel and 15% of them were active in at least one assay; those are over-represented in the sample as a whole.
endpoint name: growth inhibition (%)

{"molecule": "CCOC(=O)CCC(NC(=O)N1CCN(c2c(C)nc(C)[nH]c2=O)CC1)C(=O)OCC (stereo unspecified)", "unit symbol": "%", "value reported": -0.1}
{"molecule": "Cc1ccc(NC(=O)Nc2ccc(C)cc2)cc1", "unit symbol": "%", "value reported": -14.9}
{"molecule": "O=[N+]([O-])c1cc(C(F)(F)F)ccc1S(=O)(=O)c1ccccc1", "unit symbol": "%", "value reported": 8.5}
{"molecule": "CCOC(=O)CNC(=O)CCC(=O)OC", "unit symbol": "%", "value reported": -4.8}
{"molecule": "CCNC(=O)OC1C=CS(=O)(=O)C1 (stereo unspecified)", "unit symbol": "%", "value reported": -9.45}
{"molecule": "Cc1cc(=O)[nH]c(NNC(C#N)c2ccccc2O)n1 (stereo unspecified)", "unit symbol": "%", "value reported": -27.9}
